The origin of these recorded values is ChEMBL document CHEMBL6114989.

# test description: AUC (0 to t) in ICR mouse at 10 mg/kg, ip measured upto 24 hrs by LC-MS/MS analysis
# Assay type: ADME, organism-based
# condition info: in vivo
This section presents molecules with their documented AUC(0-t) at 24 h values.

| structure string | AUC(0-t) at 24 h [ng·h/mL] |
| --- | --- |
| CN1CC[C@@]23CCCC[C@@H]2[C@@H]1Cc1ccc(N)cc13 | 2520 |
| COc1ccc2c(c1)[C@]13CCCC[C@@H]1[C@H](C2)N(C)CC3 | 817 |
| CC(=O)Nc1ccc2c(c1)[C@]13CCCC[C@@H]1[C@H](C2)N(C)CC3 | 1080 |
